Each recorded value in this set is attributed to the supplement of paper PMC9732359.

Catalogue of protein stability index readings, one per entry.
- assayText: protein stability index of a GFP-peptide fusion (yeast GPS) (PSI 1-4); higher = more stable; sorted into four equal gates, so the index is relative within each strain
- conditionNotes: pdr5∆
parameterMeasured: protein stability index

[[record]]
sequencecontent = "VAGLEDKFRKACSSSGR [SIR3]"
reportedresult = 2.93

[[record]]
sequencecontent = "DYNDVEVNSKKKNKRAL [BRR2]"
reportedresult = 2.95

[[record]]
sequencecontent = "FGAPNNPNSTAITADLG [YGL172W/NUP49]"
reportedresult = 3

[[record]]
sequencecontent = "ARAAKIAPRPLDLLRPV [RPL13B]"
reportedresult = 3.04

[[record]]
sequencecontent = "SGCENITDKTIESIVNL [GRR1]"
reportedresult = 2.94

[[record]]
sequencecontent = "DNIGEIDESLFNLLILS [YCG1]"
reportedresult = 3.02

